For each entry below, report its self-splicing fitness (ln) value.
assay: self-splicing fitness, log relative to wild type (ln ratio); higher = more splicing; Tetrahymena group I intron in knt gene, E. coli kanamycin selection, DiMSum; sequences stand for … in CUCUCU…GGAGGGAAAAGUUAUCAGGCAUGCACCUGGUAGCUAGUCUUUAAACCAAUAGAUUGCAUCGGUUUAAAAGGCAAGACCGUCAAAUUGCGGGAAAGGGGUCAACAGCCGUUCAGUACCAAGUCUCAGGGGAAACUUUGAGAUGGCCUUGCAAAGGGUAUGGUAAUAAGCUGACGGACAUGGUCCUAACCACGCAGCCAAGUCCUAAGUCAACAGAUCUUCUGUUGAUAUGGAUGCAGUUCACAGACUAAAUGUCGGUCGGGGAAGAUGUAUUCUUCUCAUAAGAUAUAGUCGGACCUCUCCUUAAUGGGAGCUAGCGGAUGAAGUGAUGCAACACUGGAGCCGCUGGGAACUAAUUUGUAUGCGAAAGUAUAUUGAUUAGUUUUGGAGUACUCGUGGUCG; details: 30 °C;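 further: selection with 25 µg/mL kanamycin versus none on LB agar overnight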

Sample answers from the record:
UGGCAGCAAUAUUACGGGCU; -3.06
CACGAGCAAUAUUACGGUAU; -3.04
CAUUAGCAAUAUUACGGAUU; -3.12
CACCAGCAAUAUUACGUACG; 0.0448
GUCCAGCAAUAUUACGUAGU; -0.119
CGCCAGCAAUAUUACGAAGG; -1.36
AACCAGCAAUAUUACGUUUU; -2.11
AUUGAGCAAUAUUACGUGUG; -2.38

Consider the following items and state reported self-splicing fitness (ln) for each.
1. AGAGAGCAAUAUUACGCGAG
2. GUCCAGCAAUAUUACGAGCG
3. ACCGAGCAAUAUUACGGCCG
4. CAUGAGCAAUAUUACGGCCC
5. CAAUAGCAAUAUUACGUAGA

Ans.
-2.97
-2.31
-2.57
-2.29
-3.48

---

experiment: self-splicing fitness, log relative to wild type (ln ratio); higher = more splicing; Tetrahymena group I intron in knt gene, E. coli kanamycin selection, DiMSum; sequences stand for … in CUCUCU…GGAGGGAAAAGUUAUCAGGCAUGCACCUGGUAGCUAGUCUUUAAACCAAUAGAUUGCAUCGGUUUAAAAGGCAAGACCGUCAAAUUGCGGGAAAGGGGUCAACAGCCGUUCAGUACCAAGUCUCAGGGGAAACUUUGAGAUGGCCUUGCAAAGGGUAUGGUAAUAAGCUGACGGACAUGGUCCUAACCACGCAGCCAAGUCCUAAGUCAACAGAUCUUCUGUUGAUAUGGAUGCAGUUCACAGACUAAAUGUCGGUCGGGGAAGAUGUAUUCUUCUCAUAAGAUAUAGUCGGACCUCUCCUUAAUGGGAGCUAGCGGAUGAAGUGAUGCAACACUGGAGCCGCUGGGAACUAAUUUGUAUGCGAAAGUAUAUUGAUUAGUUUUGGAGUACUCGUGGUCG; conditions: 37 °C
Record Fulfilled whenever self-splicing fitness (ln) is at -1 or higher; record Not fulfilled when lower.

Look over these answered cases.
CGAUAGCAAUAUUACGACAU; Not fulfilled
CUUGAGCAAUAUUACGCCUC; Fulfilled
GUCUAGCAAUAUUACGCACU; Fulfilled

Qu. Quick check: does `AUCAAGCAAUAUUACGCUGU` have self-splicing fitness (ln) greater than or equal to -1?
Ans. Not fulfilled

Qu. Quick check: does `AGUCAGCAAUAUUACGAGAC` have self-splicing fitness (ln) greater than or equal to -1?
Ans. Not fulfilled

Qu. Quick check: does `GGUGAGCAAUAUUACGUCUG` have self-splicing fitness (ln) greater than or equal to -1?
Ans. Not fulfilled

Qu. Quick check: does `ACGAAGCAAUAUUACGCACG` have self-splicing fitness (ln) greater than or equal to -1?
Ans. Not fulfilled

Qu. Quick check: does `UACUAGCAAUAUUACGUACC` have self-splicing fitness (ln) greater than or equal to -1?
Ans. Not fulfilled

Qu. Quick check: does `AUGGAGCAAUAUUACGUGGU` have self-splicing fitness (ln) greater than or equal to -1?
Ans. Not fulfilled

Qu. Quick check: does `AGCAAGCAAUAUUACGGGUU` have self-splicing fitness (ln) greater than or equal to -1?
Ans. Not fulfilled

Qu. Quick check: does `UUUGAGCAAUAUUACGCGGU` have self-splicing fitness (ln) greater than or equal to -1?
Ans. Not fulfilled

Qu. Quick check: does `GGCAAGCAAUAUUACGCUAC` have self-splicing fitness (ln) greater than or equal to -1?
Ans. Not fulfilled

Qu. Quick check: does `CUCUAGCAAUAUUACGGUGU` have self-splicing fitness (ln) greater than or equal to -1?
Ans. Not fulfilled

Qu. Quick check: does `CAGUAGCAAUAUUACGUAUG` have self-splicing fitness (ln) greater than or equal to -1?
Ans. Not fulfilled

Qu. Quick check: does `AGGGAGCAAUAUUACGCACG` have self-splicing fitness (ln) greater than or equal to -1?
Ans. Fulfilled

Qu. Quick check: does `GGUAAGCAAUAUUACGCGUU` have self-splicing fitness (ln) greater than or equal to -1?
Ans. Fulfilled

---

experiment: self-splicing fitness, log relative to wild type (ln ratio); higher = more splicing; Tetrahymena group I intron in knt gene, E. coli kanamycin selection, DiMSum; sequences stand for … in CUCUCU…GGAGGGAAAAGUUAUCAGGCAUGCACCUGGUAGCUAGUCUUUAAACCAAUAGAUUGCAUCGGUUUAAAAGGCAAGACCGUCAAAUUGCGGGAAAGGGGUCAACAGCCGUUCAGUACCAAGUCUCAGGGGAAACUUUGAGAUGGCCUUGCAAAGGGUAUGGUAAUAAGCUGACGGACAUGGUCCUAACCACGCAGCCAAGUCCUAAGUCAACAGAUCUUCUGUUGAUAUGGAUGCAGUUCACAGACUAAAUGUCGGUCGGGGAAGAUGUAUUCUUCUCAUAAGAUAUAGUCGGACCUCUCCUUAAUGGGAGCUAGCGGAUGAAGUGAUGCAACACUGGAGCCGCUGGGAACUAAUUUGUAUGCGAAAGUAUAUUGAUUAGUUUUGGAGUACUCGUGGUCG; details: 37 °C
For each entry below, report its self-splicing fitness (ln) value.
Give bare numbers.

Sample answers from the record:
CUUUAGCAAUAUUACGUGUA; -2.81
AAGUAGCAAUAUUACGAGGA; -2.12

Consider the following items and state reported self-splicing fitness (ln) for each.
1. UCGCAGCAAUAUUACGAUGC
2. AUAGAGCAAUAUUACGGCUA
3. CAUUAGCAAUAUUACGCAAG
4. CUAUAGCAAUAUUACGUAAG
5. GUCUAGCAAUAUUACGGUAG
6. GGACAGCAAUAUUACGUGCA

Ans.
1: -1.64; 2: 0.0589; 3: -0.813; 4: 0.183; 5: -1.54; 6: -0.64

---

assay: self-splicing fitness, log relative to wild type (ln ratio); higher = more splicing; Tetrahymena group I intron in knt gene, E. coli kanamycin selection, DiMSum; sequences stand for … in CUCUCU…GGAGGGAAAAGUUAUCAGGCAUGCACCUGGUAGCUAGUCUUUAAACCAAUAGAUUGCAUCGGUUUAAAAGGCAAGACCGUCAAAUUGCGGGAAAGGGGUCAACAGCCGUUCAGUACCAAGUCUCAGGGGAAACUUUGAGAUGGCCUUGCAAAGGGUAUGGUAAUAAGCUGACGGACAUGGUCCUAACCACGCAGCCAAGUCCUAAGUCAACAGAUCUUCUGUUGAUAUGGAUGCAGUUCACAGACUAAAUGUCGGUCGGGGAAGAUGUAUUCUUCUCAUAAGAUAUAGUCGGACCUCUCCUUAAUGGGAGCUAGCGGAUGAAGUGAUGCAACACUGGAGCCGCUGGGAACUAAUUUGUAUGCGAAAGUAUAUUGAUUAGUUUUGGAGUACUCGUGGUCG; details: 37 °C
VALUE KIND: self-splicing fitness (ln)
Numbers only.

Sample answers from the record:
AACUAGCAAUAUUACGUGUA; -0.888
ACCAAGCAAUAUUACGGCCA; 0.134
GCCGAGCAAUAUUACGAUGA; -1.28

Consider the following items and state reported self-splicing fitness (ln) for each.
1. UAGGAGCAAUAUUACGCCUG
2. AUUCAGCAAUAUUACGGGUU
3. CGACAGCAAUAUUACGCUAG
4. UAAUAGCAAUAUUACGAGUC
5. GACCAGCAAUAUUACGUGUU
6. CAGCAGCAAUAUUACGUGCC
7. GGUGAGCAAUAUUACGCUGA

Ans.
[-1.23, -1.75, -2.04, -3.77, -2.44, -2.05, -2.84]

Consider the following items and state reported self-splicing fitness (ln) for each.
1. UUGCAGCAAUAUUACGUCGU
2. CGCGAGCAAUAUUACGGUGU
3. CUAAAGCAAUAUUACGGGGG

Ans.
-1.17
-2.34
-1.15

Consider the following items and state reported self-splicing fitness (ln) for each.
1. CACGAGCAAUAUUACGUUGA
2. GGUUAGCAAUAUUACGAGUA
3. ACCAAGCAAUAUUACGGCUG
4. UUCAAGCAAUAUUACGAUAG
5. ACCGAGCAAUAUUACGAAUG
6. ACCUAGCAAUAUUACGCUGC

Ans.
1. -2.47
2. -1.58
3. -0.288
4. -0.986
5. -2.7
6. -1.06

Consider the following items and state reported self-splicing fitness (ln) for each.
1. AACAAGCAAUAUUACGAACA
2. GUUCAGCAAUAUUACGUUCG
3. UUGAAGCAAUAUUACGGGCU
4. CAUCAGCAAUAUUACGCUAC
5. ACAAAGCAAUAUUACGAGUU

Ans.
1: -0.392; 2: 0.137; 3: -1.16; 4: -3.33; 5: -1.68

Where do these numbers come from? They come from the supplement of paper PMC7877785.
